Where do the numbers come from? From patent US20240245677A1.

Test: Pharmacokinetic study in male Sprague Dawley rats
Assay type: in vivo, rat
Details: rat, plasma; 10 mg/kg PO, Male Sprague Dawley Rats, mean
ENDPOINT: Tmax (h)
Form entry: value (h) — number only.

Need Tmax of `COc1cc(-c2cn(C)c(=O)c(C)c2C)cc(OC)c1CN1CC[C@H](N2CCN(c3ccc(N[C@H]4CCC(=O)NC4=O)cc3F)CC2)C(F)(F)C1` , thanks. 1.33

----------
Test: Pharmacokinetic study in male Sprague Dawley rats
Assay type: in vivo, rat
Conditions: male, Sprague Dawley, rat, plasma, intravenous, 2 mg/kg, 2 mg/kg IV, 0.033 h; read-out: Plasma Concentration, individual rats
ENDPOINT: concentration at 0.033 h
Field: value (include unit after the number)

For the compound shown here, COc1cc(-c2cn(C)c(=O)c(C)c2C)cc(OC)c1CN1CC[C@H](N2CCN(c3ccc(N[C@H]4CCC(=O)NC4=O)cc3F)CC2)C(F)(F)C1 [Compound 1] , give the reported concentration at 0.033 h. 854 ng/mL
